Reference source: patent US12162857B2

System: Human RSV-A (“Long” strain)
Assay: RSV-A assay: CPE in Hep-2 cells, ATPlite readout
Assay type: cell-based
Conditions: human respiratory syncytial virus, 120 h, MOI 0.1, 5-day incubation
pEC50: −log10 of the molar value.
List of pEC50 values.

compound	target.under.test	pEC50
COc1cc(C(=O)NC[C@@](O)(c2ccccc2)c2cc(C(=O)NC3(C)CC3)c(F)c(-c3cc(Cl)c(F)cc3F)n2)cc2cn(C3CC3)nc12	Human RSV-A (“Long” strain)	< 7.30
CC(C)(O)c1cc([C@@](O)(CNC(=O)c2cc(OC3CC3)c3nn(C4(F)CC4)cc3c2)C2CC2)nc(-c2ccc(F)cc2)c1F	Human RSV-A (“Long” strain)	> 8.00
COc1cc(C(=O)NC[C@](O)(c2cc(C(C)(C)C(N)=O)c(F)c(-c3ccc(F)cc3)n2)C2CC2)cc2cn(C3CC3)nc12 (single isomer, unassigned)	Human RSV-A (“Long” strain)	> 8.00
COc1cc(C(=O)NC[C@](O)(c2cc(N3CC[C@@H](O)C3)cc(-c3cc(Cl)c(F)cc3F)n2)C2CC2)cc2cn(C3CC3)nc12	Human RSV-A (“Long” strain)	< 7.30
NC(=O)C1(c2cc([C@@](O)(CNC(=O)c3cc(OC4CC4)c4nn(C5CC5)cc4c3)C3CC3)nc(-c3cc(Cl)c(F)cc3F)c2F)CC1 (single isomer, unassigned)	Human RSV-A (“Long” strain)	7.30 to 8.00
[2H]C([2H])([2H])C(O)(c1cc([C@@](O)(CNC(=O)c2cc(OC)n3nc(C4CC4)cc3c2)c2ccccc2)nc(-c2cc(Cl)c(F)cc2F)c1F)C([2H])([2H])[2H]	Human RSV-A (“Long” strain)	> 8.00
COc1cc(C(=O)NC[C@](O)(c2cc(C(F)(F)C(N)=O)c(F)c(-c3ccc(F)c(Cl)c3F)n2)C2CC2)cc2cn(C3CC3)nc12 (single isomer, unassigned)	Human RSV-A (“Long” strain)	7.30 to 8.00
Cc1nc2c(OC3CC3)cc(C(=O)NC[C@](O)(c3cc(C(C)(C)C(N)=O)c(F)c(-c4ccc(F)cc4)n3)C3CC3)cc2cc1Cl (single isomer, unassigned)	Human RSV-A (“Long” strain)	> 8.00
COc1cc(C(=O)NC[C@](O)(c2cc(C(C)(C)O)c(F)c(-c3cc(Cl)c(F)cc3F)n2)C2CC2)cc2cn(C3CC3)nc12	Human RSV-A (“Long” strain)	> 8.00

* * *

Tested on: Human RSV-A (“Long” strain)
Assay: RSV-A assay: CPE in Hep-2 cells, ATPlite readout
Format: cell-based
Details: human respiratory syncytial virus, 120 h, MOI 0.1, 5-day incubation
pEC50: −log10 of the molar value.

compound	target.under.test	pEC50
NC(=O)C1(c2cc([C@@](O)(CNC(=O)c3cc(OC4CC4)c4nn(C5(F)CC5)cc4c3)C3CC3)nc(-c3cc(Cl)c(F)cc3F)c2F)CC1 (single isomer, unassigned) [Example 16]	Human RSV-A (“Long” strain)	7.30 to 8.00
COc1cc(C(=O)NC[C@](O)(c2cc(C3(C(N)=O)CC3)c(F)c(-c3cc(Cl)c(F)cc3F)n2)C2CC2)cc2cn(C3CC3)nc12 (single isomer, unassigned) [Example 11]	Human RSV-A (“Long” strain)	7.30 to 8.00
COc1cc(C(=O)NC[C@](O)(c2cc(C3(C(N)=O)CC3)cc(-c3cc(Cl)c(F)cc3F)n2)C2CC2)cc2cn(C(F)F)nc12 (single isomer, unassigned) [Example 25]	Human RSV-A (“Long” strain)	7.30 to 8.00
COc1cc(C(=O)NC[C@](O)(c2cc(C(C)(C)O)c(F)c(-c3ccc(F)cc3)n2)C2CC2)cc2cc(C3CC3)nn12 (single isomer, unassigned) [Example 8]	Human RSV-A (“Long” strain)	> 8.00
N#CC1(c2cc([C@@](O)(CNC(=O)c3cc(OC4CC4)c4nn(C5CC5)cc4c3)C3CC3)nc(-c3cc(Cl)c(F)cc3F)c2F)CC1 (single isomer, unassigned) [Example 15]	Human RSV-A (“Long” strain)	7.30 to 8.00
COc1cc(C(=O)NC[C@@](O)(c2ccccc2)c2cc(C(C)(C)O)c(Cl)c(-c3ccc4c(c3Cl)OC(F)(F)O4)n2)cc2cn(C3CC3)nc12 [Example 136]	Human RSV-A (“Long” strain)	> 8.00
